- targetOrTestSystem: human TGR5 receptor (Homo sapiens, UniProt Q8TDU6)
- Sequence (Q8TDU6 whole entry): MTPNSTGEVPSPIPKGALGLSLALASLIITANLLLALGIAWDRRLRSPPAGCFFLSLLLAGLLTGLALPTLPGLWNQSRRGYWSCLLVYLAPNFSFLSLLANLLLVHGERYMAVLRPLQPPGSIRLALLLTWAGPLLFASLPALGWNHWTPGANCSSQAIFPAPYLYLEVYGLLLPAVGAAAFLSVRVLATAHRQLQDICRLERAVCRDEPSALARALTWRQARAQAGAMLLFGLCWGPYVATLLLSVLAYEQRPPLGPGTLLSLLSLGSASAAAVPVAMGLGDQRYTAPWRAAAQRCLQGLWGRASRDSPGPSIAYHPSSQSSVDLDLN
- assayText: Human TGR5 cAMP production assay (hTGR5-CHO cells, DiscoveRx cAMP XS+ kit)
- statedConditions: luminescent cAMP assay, read-out: Human TGR5 Lum. cAMP Activity (EC50)
Reported EC50 values for a set of molecules

Answered cases to consult:
[[record]]
molecule = "O=C(CCCC1CCN(c2cc(N3CCC[C@H]3C(=O)NCCc3ccc(C(F)(F)F)cc3)nc(C(F)(F)F)n2)CC1)NCCNc1ncnc2c1ncn2[C@@H]1O[C@H](CO)C(O)C1O (stereo partly drawn) [Compound 96]"
datavalue = "< 0.1 µM"

[[record]]
molecule = "O=C(O)CN1CCC(CCCC2CCN(c3cc(N4CC[C@H]4C(=O)NCCc4ccc(C(F)(F)F)cc4)nc(C(F)(F)F)n3)CC2)CC1 [Compound 281]"
datavalue = "< 0.1 µM"

[[record]]
molecule = "CCCCCCc1ccc(-c2cc(N3CCC[C@H]3C(=O)NCCc3ccc(C#N)cc3)nc(C(F)(F)F)n2)s1 [Compound 139]"
datavalue = "1 to 30 µM"


Reported EC50 for human TGR5 receptor (Homo sapiens, UniProt Q8TDU6), given COc1cc(C(F)(F)F)ccc1CCNC(=O)[C@@H]1CCN1c1cc(N2CCC(CCC(=O)O)CC2)nc(C(F)(F)F)n1 [Compound 239] ?
< 0.1 µM

Let us now turn to N#Cc1ccc(CCNC(=O)[C@@H]2CCCN2c2cc(N3CCC(CCCC(=O)NCCNc4nccc(C(=O)O)n4)CC3)nc(C(F)(F)F)n2)cc1 [Compound 102]
< 0.1 µM

Let us now turn to O=C(NCCc1ccc(C(F)(F)F)cc1)[C@@H]1CCCN1c1cc(N2CCC(CCO)CC2)nc(C(F)(F)F)n1 [Compound 7]
< 0.1 µM

---

Reported Cmax values for a set of molecules
- assayText: Pharmacokinetic profile in mice after oral gavage
- Assay type: in vivo, mouse
- statedConditions: mouse; fasted male Hilltop mice, 10 mg/kg oral gavage, plasma; read-out: Cmax
Number in µg/mL, nothing else.

Answered cases to consult:
[[record]]
chemicalstring = "N#Cc1ccc(CCNC(=O)[C@@H]2CCCN2c2cc(N3CCC(COCC(=O)O)CC3)nc(C(F)(F)F)n2)cc1"
measurename = "Cmax"
unitstext = "µg/mL"
datavalue = 0.63

[[record]]
chemicalstring = "N[C@@H](CS(=O)(=O)O)C(=O)NCCC1CCN(c2cc(N3CC[C@H]3C(=O)NCCc3ccc(C(F)(F)F)cc3)nc(C(F)(F)F)n2)CC1"
measurename = "Cmax"
unitstext = "µg/mL"
datavalue = 0.0037

[[record]]
chemicalstring = "N#Cc1ccc(CCNC(=O)[C@@H]2CCN2c2cc(N3CCC(CCCC(=O)NC[C@@H](O)CO)CC3)nc(C(F)(F)F)n2)cc1"
measurename = "Cmax"
unitstext = "µg/mL"
datavalue = 0.048

[[record]]
chemicalstring = "N#Cc1ccc(CCNC(=O)[C@@H]2CCN2c2cc(N3CCC(CCCC(=O)NCCNC(=N)N)CC3)nc(C(F)(F)F)n2)cc1"
measurename = "Cmax"
unitstext = "µg/mL"
datavalue = 0.0042


Reported Cmax, molecule N#Cc1ccc(CCNC(=O)[C@@H]2CCN2c2cc(N3CCC(CO)CC3)nc(C(F)(F)F)n2)cc1 : ____
0.075

Let us now turn to COc1cc(C(F)(F)F)ccc1CCNC(=O)[C@@H]1CCN1c1cc(N2CCC(CCC(=O)NCCS(=O)(=O)O)CC2)nc(C(F)(F)F)n1
0.027
